Provenance of the data: patent US20150125431A1

molecular target: human glucagon-like peptide 1 receptor (GLP-1R) (human, UniProt P43220 24-463); assay: cell-based or functional assay
The reader will find reported GLP-1R EC50 (nM), cAMP AlphaScreen on HEK293 cells expressing the receptor values listed item by item below.
Just the number in nM, nothing appended.

H-HGDGSFSSELATILDGKAARDFINWLIQTKITD-OH [Compound 7: Hy-HGDGSFSSELATILDGKAARDFINWLIQTKITD-OH] :: 0.78
H-HGDGSFSDEMNTILDNKAARDFINWLIQTKITD-OH [Compound 2: Hy-HGDGSFSDEMNTILDNKAARDFINWLIQTKITD-OH] :: 77

# evaluate next
## Task I am curious: what GLP-1R EC50 (nM), cAMP AlphaScreen on HEK293 cells expressing the receptor value has been reported for H-HGDGSFSSELATILDGQAARDFIAWLIQTKITD-OH [Compound 11: Hy-HGDGSFSSELATILDGQAARDFIAWLIQTKITD-OH] ?
## Result 0.34
